Overview of recorded log10(EC50) for various compounds
Biological target: human CB1 receptor (Homo sapiens, UniProt P21554)
Sequence (P21554 whole entry): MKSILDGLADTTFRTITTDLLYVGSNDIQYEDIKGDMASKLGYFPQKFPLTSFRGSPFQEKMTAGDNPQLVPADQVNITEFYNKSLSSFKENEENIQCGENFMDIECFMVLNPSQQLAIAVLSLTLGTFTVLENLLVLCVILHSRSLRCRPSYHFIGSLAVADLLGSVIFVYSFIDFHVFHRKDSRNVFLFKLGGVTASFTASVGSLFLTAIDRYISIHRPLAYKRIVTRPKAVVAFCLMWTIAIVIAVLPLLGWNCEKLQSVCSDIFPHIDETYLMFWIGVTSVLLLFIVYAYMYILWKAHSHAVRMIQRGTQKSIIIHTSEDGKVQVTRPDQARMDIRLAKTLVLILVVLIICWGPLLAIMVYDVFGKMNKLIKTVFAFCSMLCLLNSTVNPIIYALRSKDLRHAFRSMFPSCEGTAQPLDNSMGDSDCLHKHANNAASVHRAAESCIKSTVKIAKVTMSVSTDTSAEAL
Experiment: [35S] GTPγS binding on membranes of CHO cells expressing the human CB1 receptor (agonism)
Format: biochemical
Design: expressed in transfected cells; membrane preparation
Conditions: human CB1, CHO cell membranes, read-out: GTPγS EC50
Base-10 log of EC50, unit nM.

CC(C)(C)C(NC(=O)c1nn(Cc2ccc(C#N)cc2)c2c(Cl)cccc12)C(=O)NCCNS(=O)(=O)C1CC1 (centres unmarked) [Example 202] = 0.49
CC(C)(C)[C@H](NC(=O)c1nn(Cc2ccc(C#N)cc2F)c2c(F)cccc12)C(=O)NCc1nnc(C(N)=O)o1 [Example 375] = 1.50
CC(C)(C)C(NC(=O)c1nn(Cc2ccc(F)cc2)c2ccccc12)c1nnc(NC(N)=O)o1 (centres unmarked) [Example 118] = 1.38
CC(C)(C)[C@H](NC(=O)c1nn(Cc2ccc(F)cc2)c2ccccc12)C(=O)NCc1cc(C2CCC2)[nH]n1 [Example 420] = 1.64
CC(C)(C)C(NC(=O)c1nn(Cc2ccc(C#N)cc2F)c2ccccc12)c1nnc(NC(=O)C2CC2)o1 (centres unmarked) [Example 88] = 2.12

Query: # log10(EC50) lookup, item CC(C)(C)[C@H](NC(=O)c1nn(Cc2ccc(C#N)cc2)c2ccccc12)C(=O)NCCNS(=O)(=O)c1ccc(C#N)cc1 [Example 264]
Reply: 2.01

Query: Try this compound too: CC(C)(C)C(NC(=O)c1nn(Cc2ccc(F)cc2)c2ccccc12)c1nnc(NC(=O)C2CC2)o1 (centres unmarked) [Example 78]
Reply: 0.46

Query: Try this compound too: CC(C)(C)[C@H](NC(=O)c1nn(Cc2ccc(F)cc2)c2ccccc12)C(=O)NC[C@H](O)CN1CCOCC1 [Example 504]
Reply: 2.12

Query: Try this compound too: CC(C)(C)[C@H](NC(=O)c1nn(Cc2ccc(F)cc2)c2ccccc12)C(=O)NCc1cnn2cccnc12 [Example 417]
Reply: 1.41

Query: Try this compound too: CC(C)NC(=O)OC1CCN(C(=O)[C@@H](NC(=O)c2nn(Cc3ccc(F)cc3)c3ccccc23)C(C)(C)C)CC1 [Example 302]
Reply: 1.52

Query: Try this compound too: CCOC(=O)c1nnc(CNC(=O)[C@@H](NC(=O)c2nn(Cc3ccc(F)cc3)c3ccccc23)C(C)(C)C)o1 [Example 128]
Reply: 0.55

###

Biological target: human CB1 receptor (Homo sapiens, UniProt P21554)
Assay: Human CB1 receptor binding, [3H] CP-55,940 displacement on HEK cell membranes
Parameters: expressed in transfected cells; host or cells: HEK cells, doxycycline-induced; membrane preparation
Conditions: read-out: CB1 Ki
Classes are defined on Ki with ranges band 1 (below 0.005 µM), band 2 (0.005 µM to below 0.02 µM), band 3 (0.02 µM or more)

Check out these entries, answers already filled in.
CC(C)(C)[C@H](NC(=O)c1nn(Cc2ccc(F)cc2)c2ccccc12)C(=O)N1CCC[C@H]1C(=O)NCCO = band 3
CC(C)(C)[C@H](NC(=O)c1nn(Cc2ccc(F)cc2)c2ccccc12)C(=O)NCC(=O)Nc1cnoc1 = band 1
CC(C)(C)[C@H](NC(=O)c1nn(Cc2ccc(F)cc2)c2c(Cl)cccc12)C(=O)NCc1ccc(C(=O)O)cc1 = band 3
CC(C)(C)[C@H](NC(=O)c1nn(Cc2ccc(F)cc2)c2ccccc12)C(=O)NCc1cc(C2CC2)[nH]n1 = band 1
CC(C)(C)[C@H](NC(=O)c1nn(Cc2ccc(F)cc2)c2ccccc12)C(=O)NCc1n[nH]c(-c2ccccc2)n1 = band 2

Query: Band for "CC(C)(C)[C@H](NC(=O)c1nn(Cc2ccc(F)cc2)c2ccccc12)C(=O)N1CCC(F)(C(N)=O)CC1" ?
Reply: band 3

Query: Try this compound too: CC(C)(C)C(NC(=O)c1nn(Cc2ccc(F)cc2)c2ccccc12)C(=O)NCc1noc(C(N)=O)n1 (centres unmarked)
Reply: band 1

Query: Try this compound too: "CC(C)(C)[C@H](NC(=O)c1nn(Cc2ccc(F)cc2)c2ccccc12)C(=O)N1CCN(S(=O)(=O)C2CC2)CC1"
Reply: band 1

Query: Try this compound too: "CC(C)(C)[C@H](NC(=O)c1nn(Cc2ccc(F)cc2)c2ccccc12)C(=O)NCc1n[nH]c(C2CC2)n1"
Reply: band 2

Query: Try this compound too: "CC(C)(C)[C@H](NC(=O)c1nn(Cc2ccc(F)cc2)c2ccccc12)C(=O)NCCNC(=O)C1CC1"
Reply: band 1

Query: Try this compound too: "CC(C)(C)[C@H](NC(=O)c1nn(Cc2ccc(F)cc2F)c2ccccc12)C(=O)NCCN1CCNC(=O)C1"
Reply: band 3

Query: Try this compound too: "Cc1cc(O)nc(CNC(=O)[C@@H](NC(=O)c2nn(Cc3ccc(C#N)cc3)c3ccccc23)C(C)(C)C)n1"
Reply: band 3

Query: Try this compound too: "Cc1cc(O)nc(CCNC(=O)[C@@H](NC(=O)c2nn(Cc3ccc(F)cc3)c3ccccc23)C(C)(C)C)n1"
Reply: band 3
